This collection of values is drawn from patent US9040524B2.

System: Microsporum canis
Experiment: Antifungal activity in vitro, resazurin growth inhibition screen: Microsporum canis
Format: cell-based
Details: Microsporum canis B68128

molecule: Cl.Clc1ccc(Cl)c2c1CNC(c1ccc3c(c1)OCC3)c1cccn1-2 (centres unmarked)
result operator: =
Inf. B pIC50: 5.52
--
molecule: Br.Clc1cccc2c1CNC(c1ccc3c(c1)OCO3)c1cccn1-2 (centres unmarked)
result operator: =
Inf. B pIC50: 5.09
--
molecule: Cl.Clc1cc(Cl)c2c(c1)CNC(c1ccc3c(c1)CCC3)c1cccn1-2 (centres unmarked)
result operator: <
Inf. B pIC50: 4.19
--
molecule: FC1(F)CCc2cc(C3=NCc4c(Cl)cccc4-n4cccc43)ccc21
result operator: =
Inf. B pIC50: 4.49
--
molecule: Br.CCOc1cc2c(cc1C1NCc3c(Cl)cccc3-n3cccc31)CCC2 (centres unmarked)
result operator: =
Inf. B pIC50: 5.10
